experiment: activity coefficient (dimensionless); of the first substance listed, at infinite dilution; xn = mol fraction of the nth substance listed; settings: 313.15 K; 101 kPa; Liquid; dilutor technique; x1 = 0
Readout name: activity coefficient

Sample answers from the record:
> print(dat)
                                   molecule  result
1  C=CCCCCC [1-heptene] + CCCCCCCCn1cc[n+](C)c1.O=S(=O)([O-])C(F)(F)F    6.03
2  C=CCCCCCC [oct-1-ene] + CCCCCCCCn1cc[n+](C)c1.O=S(=O)([O-])C(F)(F)F    7.86
3  C=CCCC [1-pentene] + CCCCCCn1cc[n+](C)c1.O=S(=O)([O-])C(F)(F)F    4.58

Now let's try a different one.
Entry C=CCCCC [hex-1-ene] + CCCCCCn1cc[n+](C)c1.O=S(=O)([O-])C(F)(F)F has what activity coefficient? 7.23

###

experiment: activity coefficient (dimensionless); of the first substance listed, at infinite dilution; xn = mol fraction of the nth substance listed; conditions: 303.16 K; 101 kPa; Liquid; dilutor technique; x1 = 0
Readout name: activity coefficient
Reply with the value as a number alone.

> print(dat)
                                   compound  measured.number
1  CCCCCCCC [octane] + CCCCCCCCn1cc[n+](C)c1.O=S(=O)([O-])C(F)(F)F             12.6
2  CCCCCCC [heptane] + CCCCCCCCn1cc[n+](C)c1.O=S(=O)([O-])C(F)(F)F             9.59
3  CCCCCCC [heptane] + CCCCCCn1cc[n+](C)c1.O=S(=O)([O-])C(F)(F)F             19.2
4  C=CCCCCCC [oct-1-ene] + CCCCCCn1cc[n+](C)c1.O=S(=O)([O-])C(F)(F)F               15
5  CCCCCCCC [octane] + CCCCCCn1cc[n+](C)c1.O=S(=O)([O-])C(F)(F)F             27.1

Entry C=CCCCCC [1-heptene] + CCCCCCn1cc[n+](C)c1.O=S(=O)([O-])C(F)(F)F has what activity coefficient? 11

###

Recorded measurements of activity coefficient, one per entry
experiment: activity coefficient (dimensionless); of the first substance listed, at infinite dilution; xn = mol fraction of the nth substance listed; settings: 323.15 K; 101 kPa; Liquid; Chromatography; x1 = 0

Sample answers from the record:
> print(dat)
                                   compound          readout.name  result
1  CCCCCCCC [octane] + CCCCCCn1cc[n+](C)c1.O=S(=O)([O-])C(F)(F)F  activity coefficient    24.8
2  C=CCCCCCC [oct-1-ene] + CCCCCCn1cc[n+](C)c1.O=S(=O)([O-])C(F)(F)F  activity coefficient    14.6
3  CCCCCCCC [octane] + CCCCn1cc[n+](C)c1.O=S(=O)([O-])C(F)(F)F  activity coefficient    60.3
4  C=CCCCCC [1-heptene] + CCCCCCn1cc[n+](C)c1.O=S(=O)([O-])C(F)(F)F  activity coefficient    10.6

Entry C=CCCC [1-pentene] + CCCCn1cc[n+](C)c1.O=S(=O)([O-])C(F)(F)F has what activity coefficient? 9.48
